These data points were gathered from patent US11384097B2.

Listed here are compounds together with their documented Cmax.
protocol-summary: Pharmacokinetic study in SD rats (intravenous injection and intragastric administration)
Format: in vivo, Sprague Dawley (SD) rats
measurement-parameters: male, Sprague-Dawley, rat, plasma, Oral (10 mg/kg), read-out: blood concentration Cmax
Return type: number; implicit unit ng/mL.

Worked set:
INSERT INTO assay_data (compound, recorded_value) VALUES
  ('COc1ccc2c(c1OCc1ccccc1)C[C@@H](C(=O)O)N(C(=O)C(c1ccccc1)c1ccccc1)C2 [olodanrigan, reference compound]', 470),
  ('COc1ccc2c(c1OCc1ccccc1)C[C@@H](C(=O)O)N(c1nc3ccncc3o1)C2', 15900),
  ('COc1ccc(COc2c(OC)ccc3c2C[C@@H](C(=O)O)N(c2nc4ccc(F)cc4o2)C3)nc1', 4740);

The record that follows has no Cmax shown yet.
Problem: So what's the measured Cmax for this one? COc1ccc2c(c1OCc1ccccc1)CC(C(=O)NS(=O)(=O)N(C)C)N(c1nc3ccccc3o1)C2 (stereo not shown)
Result: 9470

---

protocol-summary: Pharmacokinetic study in SD rats (intravenous injection and intragastric administration)
Format: in vivo, Sprague Dawley (SD) rats
measurement-parameters: male, Sprague-Dawley, rat, plasma, Oral (10 mg/kg), read-out: Half-life T1/2 (converted)
Description: Test Example 3. Oral Pharmacokinetic Studies of the Compounds of the Present Disclosure in SD Rats SD rats were used as the experimental animal. The rats were intravenously injected or intragastrically administered with the compounds of the present disclosure, and the drug concentrations in plasma at different times were tested by LC/MS/MS methods, so as to research the pharmacokinetic characteristics of compounds of present disclosure in rats. […]
Each record here notes measured half-life.
The reply should consist of the numeric value with the unit placed after it.

Recorded half-life, per entry:
INSERT INTO results (molecule, recorded_value) VALUES
  ('COc1ccc(COc2c(OC)ccc3c2C[C@@H](C(=O)O)N(c2nc4ccc(F)cc4o2)C3)nc1', '228 min'),
  ('COc1ccc2c(c1OCc1ccccc1)C[C@@H](C(=O)O)N(c1nc3ccc(F)cc3o1)C2', '216 min'),
  ('COc1ccc2c(c1OCc1ccccc1)C[C@@H](C(=O)O)N(C(=O)C(c1ccccc1)c1ccccc1)C2 [olodanrigan, reference compound]', '90 min');

Problem: Please look up its half-life: COc1ccc2c(c1OCc1ccccc1)C[C@@H](C(=O)O)N(c1nc3ccc(C#N)cc3o1)C2
Result: 282 min

Problem: # lookup: half-life of COc1ccc(COc2c(OC)ccc3c2C[C@@H](C(=O)O)N(c2nc4ccc(F)cc4o2)C3)cn1
Result: 216 min

Problem: What value of measured half-life is listed for COc1ccc(COc2c(OC)ccc3c2C[C@@H](C(=O)O)N(c2nc4ccc(F)cc4o2)C3)cc1 ?
Result: 198 min

Problem: Data request, read-out half-life, for COc1ccc2c(c1OCc1ccccc1)CC(C(=O)NS(=O)(=O)N(C)C)N(c1nc3ccccc3o1)C2 (centres unmarked)
Result: 126 min

Problem: # half-life lookup, item COc1ccc2c(c1OCc1ccccc1)C[C@@H](C(=O)O)N(c1nc3ccncc3o1)C2
Result: 234 min

---

Quick list: IC50 per entry.
target-desc: Human AT2R (Homo sapiens, UniProt P50052)
Construct: Terbium (Tb) donor label on the receptor; From my own knowledge, the Tag-lite format usually uses an N-terminal SNAP-tag fusion labelled with Lumi4-Tb; expressed in transfected cells
Sequence (P50052 1-363): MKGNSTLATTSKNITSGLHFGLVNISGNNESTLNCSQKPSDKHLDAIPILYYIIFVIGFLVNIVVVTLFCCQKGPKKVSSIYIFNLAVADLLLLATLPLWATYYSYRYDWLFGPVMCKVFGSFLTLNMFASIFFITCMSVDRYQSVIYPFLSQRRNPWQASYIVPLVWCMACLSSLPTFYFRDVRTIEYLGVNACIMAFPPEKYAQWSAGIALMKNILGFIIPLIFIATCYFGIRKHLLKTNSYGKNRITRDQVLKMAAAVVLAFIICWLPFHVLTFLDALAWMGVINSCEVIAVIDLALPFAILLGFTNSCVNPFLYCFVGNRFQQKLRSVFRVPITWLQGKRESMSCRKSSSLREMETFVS
protocol-summary: Antagonistic activity assay on human AT2R ligand binding (Tag-lite HTRF, Tb-labeled-AT2R cells)
measurement-parameters: AT2 ligand binding, red agonist fluorescent ligand
Please state the figure in nM; there is no need to write the unit.

INSERT INTO results (test_smiles, recorded_value) VALUES
  ('COc1ccc2c(c1OCc1ccc(C(F)(F)F)cc1)C[C@@H](C(=O)O)N(c1nc3ccc(F)cc3o1)C2', 11),
  ('COc1ccc2c(c1COc1ccccc1)C[C@@H](C(=O)NS(=O)(=O)N(C)C)N(c1nc3ccc(F)cc3o1)C2', 26);

Could you now consider this next compound?
Problem: // fetch Human AT2R (Homo sapiens, UniProt P50052) IC50 for COc1ccc2c(c1OCc1ccccc1)C[C@@H](C(=O)O)N(c1nc3ccc(C#N)cc3o1)C2
Result: 36

---

Reported half-life at 1 µM values for a set of molecules
protocol-summary: Metabolic stability in rat liver microsomes
Assay type: in vitro ADME
measurement-parameters: rat liver microsomes 0.5 mg/mL, 1 μM compound, NADPH 1 mM; read-out: Half-life/(T1/2, min)
Report the figure in min without appending any unit label.

Problem: Data request, read-out half-life at 1 µM, for COc1ccc(COc2c(OC)ccc3c2C[C@@H](C(=O)O)N(c2nc4ccc(F)cc4o2)C3)nc1
Result: 768

Problem: So what's the measured half-life at 1 µM for this one? COc1ccc(COc2c(OC)ccc3c2C[C@@H](C(=O)O)N(c2nc4ccc(F)cc4o2)C3)cn1
Result: 845

Problem: Would you kindly share the measured half-life at 1 µM for COc1ccc2c(c1OCc1ccccc1)C[C@@H](C(=O)O)N(c1nc3ccc(F)cc3o1)C2 ?
Result: 233

Problem: // half-life at 1 µM lookup, key: COc1ccc2c(c1OCc1ccc(F)cc1)C[C@@H](C(=O)O)N(c1nc3ccc(F)cc3o1)C2
Result: 164

Problem: What measured half-life at 1 µM goes with COc1ccc(COc2c(OC)ccc3c2C[C@@H](C(=O)O)N(c2nc4ccc(F)cc4o2)C3)cc1 ?
Result: 251

---

Below, each of the compounds is paired with its reported AUC(0-inf) value.
protocol-summary: Pharmacokinetic study in SD rats (intravenous injection and intragastric administration)
Format: in vivo, Sprague Dawley (SD) rats
measurement-parameters: male, Sprague-Dawley, rat, plasma, iv, Injection (1 mg/kg), tail vein, read-out: area under curve AUC0-∞
Experimental: Test Example 3. Oral Pharmacokinetic Studies of the Compounds of the Present Disclosure in SD Rats SD rats were used as the experimental animal. The rats were intravenously injected or intragastrically administered with the compounds of the present disclosure, and the drug concentrations in plasma at different times were tested by LC/MS/MS methods, so as to research the pharmacokinetic characteristics of compounds of present disclosure in rats. […]
Express the result in ng·h/mL but write the number alone.

Here is how some compounds turned out for AUC(0-inf).
INSERT INTO results (compound, unit_annotation, recorded_value) VALUES
  ('COc1ccc2c(c1OCc1ccccc1)C[C@@H](C(=O)O)N(C(=O)C(c1ccccc1)c1ccccc1)C2 [olodanrigan, reference compound]', 'ng·h/mL', 1230),
  ('COc1ccc2c(c1OCc1ccccc1)C[C@@H](C(=O)O)N(c1nc3ccc(C#N)cc3o1)C2', 'ng·h/mL', 9590),
  ('COc1ccc2c(c1OCc1ccccc1)C[C@@H](C(=O)O)N(c1nc3ccncc3o1)C2', 'ng·h/mL', 8020),
  ('COc1ccc(COc2c(OC)ccc3c2C[C@@H](C(=O)O)N(c2nc4ccc(F)cc4o2)C3)cc1', 'ng·h/mL', 3230),
  ('COc1ccc(COc2c(OC)ccc3c2C[C@@H](C(=O)O)N(c2nc4ccc(F)cc4o2)C3)nc1', 'ng·h/mL', 4600);

Problem: So what does the record say about AUC(0-inf) for COc1ccc2c(c1OCc1ccccc1)CC(C(=O)NS(=O)(=O)N(C)C)N(c1nc3ccccc3o1)C2 (centres unmarked) ?
Result: 2550

Problem: Which AUC(0-inf) reading was recorded for the compound COc1ccc2c(c1OCc1ccccc1)C[C@@H](C(=O)O)N(c1nc3ccc(F)cc3o1)C2 ?
Result: 8230

Problem: Returns the measured AUC(0-inf) for the input compound. Input: COc1ccc(COc2c(OC)ccc3c2C[C@@H](C(=O)O)N(c2nc4ccc(F)cc4o2)C3)cn1
Result: 3380

---

target-desc: Human AT2R (Homo sapiens)
Construct: Terbium (Tb) donor label on the receptor; From my own knowledge, the Tag-lite format usually uses an N-terminal SNAP-tag fusion labelled with Lumi4-Tb; expressed in transfected cells
Sequence (P50052 1-363): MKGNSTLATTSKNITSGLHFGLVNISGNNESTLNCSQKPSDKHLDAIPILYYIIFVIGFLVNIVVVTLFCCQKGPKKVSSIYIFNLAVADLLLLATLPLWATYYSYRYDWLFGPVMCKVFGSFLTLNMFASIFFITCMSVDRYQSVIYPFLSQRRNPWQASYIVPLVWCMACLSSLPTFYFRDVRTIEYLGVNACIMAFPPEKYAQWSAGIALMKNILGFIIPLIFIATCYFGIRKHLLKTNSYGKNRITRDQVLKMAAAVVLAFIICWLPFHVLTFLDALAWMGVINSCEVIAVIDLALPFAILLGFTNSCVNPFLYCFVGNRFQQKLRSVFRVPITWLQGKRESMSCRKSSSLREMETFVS
protocol-summary: Antagonistic activity assay on human AT2R ligand binding (Tag-lite HTRF, Tb-labeled-AT2R cells)
measurement-parameters: AT2 ligand binding, red agonist fluorescent ligand
The entries below are paired with their reported IC50.
Please state the figure in nM; there is no need to write the unit.

INSERT INTO results (test_smiles, target_desc, measured_attribute, unit_annotation, recorded_value) VALUES
  ('COc1ccc2c(c1OCc1ccccc1)C[C@@H](C(=O)NS(C)(=O)=O)N(c1nc3ccc(F)cc3o1)C2', 'Human AT2R (Homo sapiens)', 'IC50', 'nM', 37);

Problem: Form entry - test system: Human AT2R (Homo sapiens); read-out: IC50; compound: CCS(=O)(=O)NC(=O)[C@@H]1Cc2c(ccc(OC)c2COc2ccccc2)CN1c1nc2ccc(F)cc2o1
Result: 25

Problem: Hi! What's the reported IC50 for COc1ccc(COc2c(OC)ccc3c2C[C@@H](C(=O)O)N(c2nc4ccc(C#N)cc4o2)C3)cc1 on Human AT2R (Homo sapiens)?
Result: 6

Problem: Quick check: IC50 on Human AT2R (Homo sapiens), item CCS(=O)(=O)NC(=O)[C@@H]1Cc2c(ccc(OC)c2OCc2ccc(OC)cc2)CN1c1nc2ccc(F)cc2o1 ?
Result: 6
